# credit: patent US20250320184A1

Target: SARM1 (50-724) (Homo sapiens, UniProt Q6SZW1)
Sequence (Q6SZW1 50-724): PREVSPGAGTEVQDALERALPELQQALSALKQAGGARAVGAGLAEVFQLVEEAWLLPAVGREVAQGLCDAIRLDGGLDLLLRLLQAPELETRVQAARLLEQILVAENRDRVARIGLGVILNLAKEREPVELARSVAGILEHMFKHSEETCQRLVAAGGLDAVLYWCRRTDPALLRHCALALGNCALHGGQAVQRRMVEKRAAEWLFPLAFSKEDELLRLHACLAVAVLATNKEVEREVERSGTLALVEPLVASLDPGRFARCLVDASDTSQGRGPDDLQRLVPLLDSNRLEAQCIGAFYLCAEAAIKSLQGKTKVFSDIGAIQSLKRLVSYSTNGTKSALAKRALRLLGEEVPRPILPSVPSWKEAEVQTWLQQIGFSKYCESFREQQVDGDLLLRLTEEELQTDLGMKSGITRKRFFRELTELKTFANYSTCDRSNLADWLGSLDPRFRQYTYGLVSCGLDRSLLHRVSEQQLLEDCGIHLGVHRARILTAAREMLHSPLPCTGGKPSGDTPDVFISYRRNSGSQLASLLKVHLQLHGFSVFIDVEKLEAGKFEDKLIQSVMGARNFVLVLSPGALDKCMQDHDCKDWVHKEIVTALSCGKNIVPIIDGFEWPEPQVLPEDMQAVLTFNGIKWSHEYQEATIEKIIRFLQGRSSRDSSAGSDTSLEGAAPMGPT
Assay: biochemical
# IC50 listing for each entry below

# compound, IC50
data = [
    ("CNC(=O)c1nn(C)c2ccc(NC(C)c3c(Cl)ccc(F)c3Cl)cc12 (racemic) [Compound 246]", "< 0.1 µM"),
    ("CCC(Nc1ccc2cc[nH]c(=O)c2c1)c1nccc(Cl)c1Cl (racemic) [Example 153]", "< 0.1 µM"),
    ("CC(Nc1ccc2c(c1)C(=O)NCC2)c1cccc(Cl)c1Cl (single isomer, unassigned) [Example 111]", "< 0.1 µM"),
    ("C=CCCC(Nc1ccc2c(c1)C(=O)NCC2)c1cc(C)cc(F)c1 (racemic) [Example 145]", "0.5 to 1 µM"),
    ("O=C1NCCc2ccc(NS(=O)(=O)c3ccc(F)c(F)c3F)cc21 [Compound 36]", "0.1 to 0.5 µM"),
    ("CC(Nc1cc(F)c2ncn(-c3ncc[nH]3)c(=O)c2c1)c1nc(Cl)c(Cl)s1 (racemic) [Example 375]", "< 0.1 µM"),
    ("CCC(C(N)=O)c1ccc(NS(=O)(=O)c2cccc(Cl)c2Cl)cc1 (single isomer, unassigned) [Compound 270]", "< 0.1 µM"),
    ("CCC(C(N)=O)c1ccc(NS(=O)(=O)c2cccc(Cl)c2Cl)cc1 (single isomer, unassigned) [Compound 270A]", "0.1 to 0.5 µM"),
    ("O=C1Nc2cc(NS(=O)(=O)c3cccc(Cl)c3Cl)ccc2C12CC2 [Compound 208]", "< 0.1 µM"),
    ("CC(Nc1ccc2cc[nH]c(=O)c2c1)c1ccccc1F (racemic) [Example 115]", "> 1 µM"),
    ("CC1(C)CC(=O)c2cc(NS(=O)(=O)c3cccc(Cl)c3Cl)ccc21 [Compound 264]", "< 0.1 µM"),
    ("CC1(C)C(=O)Nc2cc(NC(CO)c3c(Cl)ccc(F)c3Cl)ccc21 (racemic) [Example 238]", "< 0.1 µM"),
    ("CC1(C)CN(C(=O)CC(N)=O)c2cc(NS(=O)(=O)c3cccc(Cl)c3Cl)ccc21 [Compound 299]", "< 0.1 µM"),
    ("CC(Nc1ccc2cc[nH]c(=O)c2c1)c1csc(Cl)c1Cl (racemic) [Compound 353]", "< 0.1 µM"),
    ("CC(Nc1cc(F)c2ncn(-c3ccn[nH]3)c(=O)c2c1)c1nc(Cl)c(Cl)s1 (single isomer, unassigned) [Example 356A]", "> 1 µM"),
    ("Cc1ccc(C)c(S(=O)(=O)Nc2ccc3c(c2)C(=O)NCC3)c1 [Example 2A]", "> 1 µM"),
]

----------
target: SARM1 (50-724) (Homo sapiens, UniProt Q6SZW1); test: biochemical
# IC50 listing for each entry below
measurement-type: IC50

# compound, measurement-type, result
measured = [
    ("CC(Nc1ccc2cc[nH]c(=O)c2c1)c1ccccc1Cl (racemic) [Example 110]", "IC50", "100 to 500 nM"),
    ("CC(Nc1ccc2cc[nH]c(=O)c2c1)c1nc(Cl)c(Cl)s1 (racemic) [Compound 187]", "IC50", "< 100 nM"),
    ("Clc1cccc(C(Nc2ccc3cccnc3c2)C2CC2)c1Cl (stereo not shown) [Example 180]", "IC50", "100 to 500 nM"),
    ("CC(Nc1ccc2nc[nH]c(=O)c2n1)c1ccc(F)c(Cl)c1Cl (single isomer, unassigned) [Compound 385]", "IC50", "> 1000 nM"),
]

----------
# pIC50 listing for each entry below
target: SARM1 (50-724) (Homo sapiens); assay: biochemical
pIC50: −log10 of the molar value.

# molecule, pIC50
rows = [
    ("CC(Nc1ccc2c(Cl)n(CC(N)=O)nc2c1)c1nc(Cl)c(Cl)s1 (racemic)", "> 7.00"),
    ("Cc1n[nH]c2cc(NS(=O)(=O)c3cccc(Cl)c3Cl)cc(F)c12", "> 7.00"),
    ("Cc1n[nH]c(=O)c2cc(NC(CC(O)CCO)c3nc(Cl)c(Cl)s3)ccc12 (mixture of isomers)", "6.30 to 7.00"),
    ("Cn1cnc2cc(NS(=O)(=O)c3cccc(Cl)c3Cl)ccc21", "6.30 to 7.00"),
    ("CC1(C)CN(C(=O)c2ccccn2)c2cc(NS(=O)(=O)c3cccc(Cl)c3Cl)ccc21", "> 7.00"),
]

----------
Biological target: SARM1 (50-724) (Homo sapiens)
Sequence (Q6SZW1 50-724): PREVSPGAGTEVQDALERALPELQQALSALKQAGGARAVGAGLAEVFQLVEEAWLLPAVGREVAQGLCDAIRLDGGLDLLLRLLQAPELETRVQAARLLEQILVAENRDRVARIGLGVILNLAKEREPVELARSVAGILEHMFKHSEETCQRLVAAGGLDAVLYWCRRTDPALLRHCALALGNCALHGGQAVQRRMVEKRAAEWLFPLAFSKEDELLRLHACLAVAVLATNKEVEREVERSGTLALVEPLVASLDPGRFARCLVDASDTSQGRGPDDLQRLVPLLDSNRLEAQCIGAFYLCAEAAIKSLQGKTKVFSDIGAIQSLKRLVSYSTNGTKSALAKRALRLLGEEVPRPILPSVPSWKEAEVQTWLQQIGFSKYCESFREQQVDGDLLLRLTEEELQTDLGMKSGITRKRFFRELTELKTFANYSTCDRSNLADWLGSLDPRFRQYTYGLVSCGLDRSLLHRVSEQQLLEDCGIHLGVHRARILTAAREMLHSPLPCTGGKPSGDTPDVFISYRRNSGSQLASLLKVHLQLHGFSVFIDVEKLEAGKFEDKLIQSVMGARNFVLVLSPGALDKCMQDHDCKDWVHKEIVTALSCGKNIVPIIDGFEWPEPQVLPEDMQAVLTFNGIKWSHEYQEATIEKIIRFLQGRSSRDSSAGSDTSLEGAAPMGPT
Assay: biochemical
pIC50: −log10 of the molar value.
# pIC50 listing for each entry below

# molecule, pIC50
measured = [
    ("CC1CN(S(=O)(=O)Nc2ccc3c(c2)C(=O)NCC3)CC(C)O1 (centres unmarked)", "< 6.00"),
    ("Cc1n[nH]c(=O)c2cc(NC(CCO)c3nc(Cl)c(Cl)s3)ccc12 (racemic)", "> 7.00"),
    ("CC(Nc1ccc2ccn(CC(N)=O)c(=O)c2c1)c1nn(C)c(C2CC2)c1Cl (racemic)", "> 7.00"),
    ("Cc1cc(F)cc(C(CO)Oc2ccc3c(c2)C(=O)NCC3)c1 (centres unmarked)", "< 6.00"),
    ("CC(Nc1ccc2nc[nH]c(=O)c2c1)c1cccc(Cl)c1Cl (racemic) [Example 128]", "> 7.00"),
    ("CC(Nc1cc(F)c2ncn(CCO)c(=O)c2c1)c1nc(Cl)c(Cl)s1 (racemic)", "> 7.00"),
    ("CC(Nc1ccc2c(c1)C(=O)NCC2)c1cc(Cl)cc(Cl)n1 (racemic)", "6.00 to 6.30"),
    ("CC1N(C(=O)CC(N)=O)c2cc(NS(=O)(=O)c3cccc(Cl)c3Cl)ccc2C1(C)C (racemic)", "> 7.00"),
    ("Cc1c(F)cccc1S(=O)(=O)Nc1ccc2cnn(C(=O)OC(C)(C)C)c2c1", "< 6.00"),
    ("O=c1[nH]cc(Br)c2ccc(NS(=O)(=O)c3cccc(Cl)c3Cl)cc12", "6.30 to 7.00"),
    ("CC[C@H](C(N)=O)c1ccc(N[C@@H](C)c2nc(Cl)c(Cl)s2)cc1 (single isomer, unassigned)", "> 7.00"),
    ("CC1(C)C(=O)N(CC(=O)NCCO)c2cc(NS(=O)(=O)c3cccc(Cl)c3Cl)ccc21", "> 7.00"),
    ("O=C1NCCOc2ccc(NS(=O)(=O)c3cccc(Cl)c3Cl)cc21", "6.30 to 7.00"),
    ("Cc1cc(F)cc(C(Nc2ccc3c(c2)C(=O)NCC3)c2ccncc2)c1 (centres unmarked)", "< 6.00"),
    ("Cc1c(C#N)sc(C(C)Nc2ccc3c(C)n[nH]c(=O)c3c2)c1Cl (racemic)", "6.30 to 7.00"),
    ("Cc1n[nH]c(=O)c2cc(N[C@H](C)c3c(Cl)ccc(F)c3Cl)ccc12 (single isomer, unassigned) [Example 237A]", "6.00 to 6.30"),
    ("CC(Nc1ccc2nc[nH]c(=O)c2c1)c1c(Cl)ccc(F)c1Cl (racemic) [Example 193]", "> 7.00"),
    ("CC(Nc1cc(F)c2ncn(-c3ccn[nH]3)c(=O)c2c1)c1nc(Cl)c(Cl)s1 (single isomer, unassigned) [Example 356]", "> 7.00"),
    ("CC(Nc1cc(F)c2ncn(-c3nc[nH]n3)c(=O)c2c1)c1nc(Cl)c(Cl)s1 (racemic)", "> 7.00"),
    ("CC(Nc1ccc2cc[nH]c(=O)c2c1)c1nn2c(c1Cl)CCCC2 (racemic)", "6.30 to 7.00"),
    ("CC1Cc2ccc(NS(=O)(=O)c3cccc(Cl)c3Cl)cc2NC1=O (racemic)", "> 7.00"),
    ("O=S(=O)(Nc1ccc2csnc2c1)c1cccc(Cl)c1Cl", "6.30 to 7.00"),
    ("CC(Nc1ccc2snc(C(N)=O)c2c1)c1nc(Cl)c(Cl)s1 (racemic)", "> 7.00"),
    ("CN1C(=O)C(C)(C)c2ccc(NS(=O)(=O)c3cccc(Cl)c3Cl)cc21", "> 7.00"),
    ("CC1(C)CN(S(N)(=O)=O)c2cc(NS(=O)(=O)c3cccc(Cl)c3Cl)ccc21", "> 7.00"),
    ("CC(Nc1ccc2ccn(CCO)c(=O)c2c1)c1nc(Cl)c(Cl)s1 (racemic)", "> 7.00"),
    ("Cc1c2c(F)cc(NC(C)c3nc(Cl)c(Cl)s3)cc2nn1CC(N)=O (racemic) [Compound 389]", "> 7.00"),
    ("CC(Nc1cc(F)c2nc[nH]c(=O)c2c1)c1cncc(Cl)c1Cl (racemic)", "> 7.00"),
    ("CC(Nc1ccc2cc[nH]c(=O)c2c1)c1nc2c(s1)CCCC2 (racemic)", "6.30 to 7.00"),
    ("Cc1n[nH]c(=O)c2cc(NC(C)c3nc(Cl)c(Cl)s3)ccc12 (racemic) [Example 223]", "> 7.00"),
    ("Cc1cc(F)cc(C(Nc2ccc3c(c2)C(=O)NCC3)C(F)(F)F)c1 (centres unmarked)", "6.30 to 7.00"),
    ("O=C1NCCc2ccc(NS(=O)(=O)c3cccc(F)c3F)cc21", "< 6.00"),
]
